Recorded values, source the Kinase Knowledgebase extract (Sharma et al. 2016).

CDK2 (human) (UniProt P24941) IC50 data
Field format: number, assumed µM, no unit text.

Q. Please look up its IC50: Cc1nc(NN=Cc2ccco2)nc(-c2ccc(O)cc2O)c1C(=O)Nc1cccc([N+](=O)[O-])c1
A. 3.8

Q. Input Cc1nc(NN2C(=O)C(=Cc3ccco3)SC2=S)nc(-c2ccc(O)cc2O)c1C(=O)Nc1cccc([N+](=O)[O-])c1
A. 0.4

Q. CC1=CN(c2nc(C)c(C(=O)Nc3cccc([N+](=O)[O-])c3)c(-c3ccc(O)cc3O)n2)C(=O)C1=Cc1ccco1 , same question.
A. 10.3

====

Target: UniProt:P00533
Sequence (P00533 whole entry, looked up): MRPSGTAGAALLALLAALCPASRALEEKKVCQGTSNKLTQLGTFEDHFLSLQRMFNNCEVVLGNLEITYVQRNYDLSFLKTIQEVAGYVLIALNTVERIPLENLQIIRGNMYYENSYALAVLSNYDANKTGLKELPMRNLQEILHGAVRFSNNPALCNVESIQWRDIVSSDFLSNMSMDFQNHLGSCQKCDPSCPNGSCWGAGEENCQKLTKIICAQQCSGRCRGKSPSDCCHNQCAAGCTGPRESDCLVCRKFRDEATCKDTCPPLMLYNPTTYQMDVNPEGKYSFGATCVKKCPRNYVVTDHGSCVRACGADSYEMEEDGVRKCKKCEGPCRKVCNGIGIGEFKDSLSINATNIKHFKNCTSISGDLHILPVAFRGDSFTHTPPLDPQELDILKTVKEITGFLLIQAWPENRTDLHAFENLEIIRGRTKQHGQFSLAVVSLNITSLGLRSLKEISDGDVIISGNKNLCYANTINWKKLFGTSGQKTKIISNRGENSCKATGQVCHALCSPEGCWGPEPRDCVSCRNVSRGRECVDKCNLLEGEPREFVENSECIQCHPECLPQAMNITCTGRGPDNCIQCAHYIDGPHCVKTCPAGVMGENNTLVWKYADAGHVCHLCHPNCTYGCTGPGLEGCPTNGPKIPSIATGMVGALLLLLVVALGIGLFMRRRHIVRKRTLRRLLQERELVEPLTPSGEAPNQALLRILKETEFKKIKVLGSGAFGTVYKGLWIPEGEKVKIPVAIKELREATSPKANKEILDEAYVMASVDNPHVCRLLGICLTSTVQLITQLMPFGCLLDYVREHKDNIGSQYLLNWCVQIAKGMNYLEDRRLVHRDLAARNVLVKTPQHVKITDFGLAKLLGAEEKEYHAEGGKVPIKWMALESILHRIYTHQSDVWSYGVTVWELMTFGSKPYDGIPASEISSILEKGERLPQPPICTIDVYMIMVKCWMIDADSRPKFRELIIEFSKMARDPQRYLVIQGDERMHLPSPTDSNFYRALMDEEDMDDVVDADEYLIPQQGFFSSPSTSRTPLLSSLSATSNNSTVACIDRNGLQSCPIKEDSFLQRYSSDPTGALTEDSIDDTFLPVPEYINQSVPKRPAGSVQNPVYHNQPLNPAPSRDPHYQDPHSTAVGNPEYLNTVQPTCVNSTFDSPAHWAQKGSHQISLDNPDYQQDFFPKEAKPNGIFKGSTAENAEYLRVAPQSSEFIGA
recorded metric: IC50

Q. Item CC1=CN(c2nc(C)c(C(=O)Nc3cccc([N+](=O)[O-])c3)c(-c3ccc(O)cc3O)n2)C(=O)C1=Cc1cccs1 has what recorded IC50?
A. > 100 µM

Q. Moving on to CC1=CN(c2nc(C)c(C(=O)Nc3cccc([N+](=O)[O-])c3)c(-c3ccc(O)cc3O)n2)C(=O)C1=Cc1ccco1
A. > 100 µM

Q. Try Cc1nc(NN2C(=O)C(=Cc3ccccc3)SC2=S)nc(-c2ccc(O)cc2O)c1C(=O)Nc1cccc([N+](=O)[O-])c1 next.
A. > 100 µM

Q. Another compound to look at: Cc1nc(NN)nc(-c2ccc(O)cc2O)c1C(=O)Nc1cccc([N+](=O)[O-])c1
A. 47.9 µM

====

Target: CDK2 (human) (UniProt P24941)
Assay: Cell-Based Assay
Settings: hct 116
recorded metric: GI50 (µM)
Give just the numeric value; µM need not be written.

Q. Which GI50 value belongs to Cc1nc(NN)nc(-c2ccc(O)cc2O)c1C(=O)Nc1cccc([N+](=O)[O-])c1 ?
A. 47.7

Q. Repeat for the following compound: Cc1nc(NN=Cc2ccco2)nc(-c2ccc(O)cc2O)c1C(=O)Nc1cccc([N+](=O)[O-])c1
A. 8.89

Q. Likewise for Cc1nc(NN=Cc2cccs2)nc(-c2ccc(O)cc2O)c1C(=O)Nc1cccc([N+](=O)[O-])c1 ?
A. 38.2

Q. // query: Cc1nc(NN2C(=O)C(=Cc3cccs3)SC2=S)nc(-c2ccc(O)cc2O)c1C(=O)Nc1cccc([N+](=O)[O-])c1
A. 4.5

Q. Next record, please: CC1=CN(c2nc(C)c(C(=O)Nc3cccc([N+](=O)[O-])c3)c(-c3ccc(O)cc3O)n2)C(=O)C1=Cc1cccs1
A. 26.5

Q. Consider next the compound Cc1nc(NN2C(=O)C(=Cc3ccccc3)SC2=S)nc(-c2ccc(O)cc2O)c1C(=O)Nc1cccc([N+](=O)[O-])c1 in the same way.
A. 16.6

====

Target: CDK2 (human)
Assay: Cell-Based Assay
Conditions: hct 116
Would you mind telling me the reported GI50 of each entry?

Q. Any idea what its GI50 is? The compound is CC1=C(C(=O)Nc2cccc([N+](=O)[O-])c2)C(c2ccc(O)cc2O)NC(NCc2ccccc2)=N1 (stereo not drawn)
A. > 100 µM

Q. Next: Cc1nc(NN2C(=O)C(=Cc3ccco3)SC2=S)nc(-c2ccc(O)cc2O)c1C(=O)Nc1cccc([N+](=O)[O-])c1
A. > 100 µM

Q. For CC1=CN(c2nc(C)c(C(=O)Nc3cccc([N+](=O)[O-])c3)c(-c3ccc(O)cc3O)n2)C(=O)C1=Cc1ccco1 then?
A. > 100 µM
